B1: FAM189A2 (parent)
chain: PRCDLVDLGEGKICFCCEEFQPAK

Variants of: B1
Assay: protein stability index of a GFP-peptide fusion (GPS, HEK-293T) (PSI 1-6); higher = more stable;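 note: lentivirally expressed fusions sorted by FACS into six bins by GFP to DsRed ratio, PSI derived from sequencing read proportions per bin multiplied by bin number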
Conditions: c terminus: a fixed tail appended
Readout Name: protein stability index

Examples with answers:
1) K12C :: 3.45
2) Q21H :: 3.1

Quick one: give me protein stability index for each item below, same order please.
1. D7N
2. C17F
3. D7Q
4. D7I
5. E10N
6. C3I
7. L5R

Key:
2.76
2.37
2.2
1.71
2.65
2.05
2.98
